Data provenance is paper PMC9964746.

Kindly state pEC50 for each of the entries shown.
# assay.system: vasopressin-2 receptor (AVP2R) (Homo sapiens, UniProt P30518)
# Construct: HEK-293 (agonist format)
# Sequence (P30518 whole entry): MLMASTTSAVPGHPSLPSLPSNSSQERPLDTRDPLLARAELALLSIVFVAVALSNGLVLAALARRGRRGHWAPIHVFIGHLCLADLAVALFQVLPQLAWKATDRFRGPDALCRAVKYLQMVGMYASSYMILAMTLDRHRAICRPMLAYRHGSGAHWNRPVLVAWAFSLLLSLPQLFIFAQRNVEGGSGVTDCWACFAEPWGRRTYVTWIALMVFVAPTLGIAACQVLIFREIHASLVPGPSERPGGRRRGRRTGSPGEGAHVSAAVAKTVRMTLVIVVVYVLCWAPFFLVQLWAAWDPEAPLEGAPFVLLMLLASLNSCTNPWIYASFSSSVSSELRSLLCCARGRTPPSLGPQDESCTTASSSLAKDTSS
# protocol.summary: AVP2R cAMP HTRF accumulation assay
# assay.context: CHO-K1 AVP2R cells, PAM format with vasopressin; original hits: agonist and PAM data combined; average ± SD
Recall that pEC50 is obtained by taking minus log10 of the concentration measured in molar.

Value of measured pEC50 for the entry CC(C)c1nc2sc3c(NCCN4CCOCC4)ncnc3c2c2c1CCCC2 : 4.58

Value of measured pEC50 for the entry O=C(O)CSc1ncnc2c1sc1nc(N3CCOCC3)c3c(c12)CCCC3 : 4.42

Value of measured pEC50 for the entry CCCc1nc2oc3c(NN)ncnc3c2c2c1CCCC2 : 4.82

Value of measured pEC50 for the entry c1nc(N2CCNCC2)c2sc3nc(N4CCOCC4)c4c(c3c2n1)CCCC4 : 4.83

Value of measured pEC50 for the entry CCN(CC)CCCNc1ncnc2c1oc1nc(CC(C)C)c3c(c12)CCC3 : 4.66

Value of measured pEC50 for the entry CC(C)Cc1nc2oc3c(NCCCN(C)C)ncnc3c2c2c1CCC2 : 4.90

Value of measured pEC50 for the entry CN(C)CCCNc1nnnc2c1sc1nc(N3CCCCC3)c3c(c12)CCCC3 : 5.51

Value of measured pEC50 for the entry CCCc1nc2oc3c(N4CCNCC4)ncnc3c2c2c1CCCC2 : 4.94

Value of measured pEC50 for the entry CCCc1nc2oc3c(NCCCN(CC)CC)ncnc3c2c2c1CCCC2 : 5.21

Value of measured pEC50 for the entry CN(C)CCNc1ncnc2c1sc1nc(N3CCCCC3)c3c(c12)CCCC3 : 5.10

====

# assay.system: vasopressin-2 receptor (AVP2R) (Homo sapiens, UniProt P30518)
# Construct: expressed in transfected cells; host or cells: CHO-K1 (PAM format); HEK-293 (agonist format)
# protocol.summary: AVP2R cAMP HTRF accumulation assay
# Assay type: cell-based
# assay.context: CHO-K1 AVP2R cells, PAM format with vasopressin; original hits: agonist and PAM data combined; average ± SD
Please use yes (1) whenever Emax is not below 30%, and no (0) whenever it is.

Asked: Identify whether the reported Emax of the following molecule is 30% or greater: CCN(CC)CCNc1ncnc2c1oc1nc(CC(C)C)c3c(c12)CCC3
Given back: yes (1)

Asked: Identify whether the reported Emax of the following molecule is 30% or greater: CC(Sc1ncnc2c1sc1nc(N3CCOCC3)c3c(c12)CCCC3)C(=O)O (centres unmarked)
Given back: no (0)

Asked: Identify whether the reported Emax of the following molecule is 30% or greater: c1nc(N2CCNCC2)c2sc3nc(N4CCOCC4)c4c(c3c2n1)CCCC4
Given back: yes (1)

Asked: Identify whether the reported Emax of the following molecule is 30% or greater: CN(C)CCCNc1nnnc2c1sc1nc(N3CCCCC3)c3c(c12)CCCC3
Given back: yes (1)

Asked: Identify whether the reported Emax of the following molecule is 30% or greater: O=C(CSc1ncnc2c1sc1nc(N3CCOCC3)c3c(c12)CCCC3)NCc1ccco1
Given back: yes (1)

Asked: Identify whether the reported Emax of the following molecule is 30% or greater: CN(C)CCNc1ncnc2c1sc1nc(-c3ccccc3)c3c(c12)CCCC3
Given back: yes (1)

Asked: Identify whether the reported Emax of the following molecule is 30% or greater: CCCc1nc2sc3c(NCCN4CCOCC4)ncnc3c2c2c1CCCC2
Given back: yes (1)

Asked: Identify whether the reported Emax of the following molecule is 30% or greater: CC(C)c1nc2oc3c(N4CCC(Cc5ccccc5)CC4)ncnc3c2c2c1CCC2
Given back: no (0)

Asked: Identify whether the reported Emax of the following molecule is 30% or greater: CC(C)Cc1nc2oc3c(NCCN(C)C)ncnc3c2c2c1CCC2
Given back: yes (1)

Asked: Identify whether the reported Emax of the following molecule is 30% or greater: CCCc1nc2sc3c(NCCN(CC)CC)ncnc3c2c2c1CCCC2
Given back: yes (1)

Asked: Identify whether the reported Emax of the following molecule is 30% or greater: CCOC(=O)N1CCN(c2ncnc3c2oc2nc(CC(C)C)c4c(c23)CCCC4)CC1
Given back: no (0)

Asked: Identify whether the reported Emax of the following molecule is 30% or greater: CC(C)c1nc2sc3c(NCCN4CCOCC4)ncnc3c2c2c1CCCC2
Given back: yes (1)

Asked: Identify whether the reported Emax of the following molecule is 30% or greater: C=CCNc1ncnc2c1sc1nc(N3CCOCC3)c3c(c12)CCCC3
Given back: no (0)

Asked: Identify whether the reported Emax of the following molecule is 30% or greater: CCN(CC)c1ncnc2c1sc1nc(N3CCOCC3)c3c(c12)CCCC3
Given back: no (0)

Asked: Identify whether the reported Emax of the following molecule is 30% or greater: COCCNc1ncnc2c1sc1nc(N3CCOCC3)c3c(c12)CCCC3
Given back: no (0)

Asked: Identify whether the reported Emax of the following molecule is 30% or greater: CCCc1nc2sc3c(SC)ncnc3c2c2c1CCCC2
Given back: no (0)

Asked: Identify whether the reported Emax of the following molecule is 30% or greater: CCCc1nc2sc3c(NCCCO)ncnc3c2c2c1CCC2
Given back: no (0)

Asked: Identify whether the reported Emax of the following molecule is 30% or greater: CCCc1nc2oc3c(N4CCN(CCO)CC4)ncnc3c2c2c1CCCC2
Given back: no (0)

Asked: Identify whether the reported Emax of the following molecule is 30% or greater: c1nc(N2CCCC2)c2sc3nc(N4CCOCC4)c4c(c3c2n1)CCCC4
Given back: no (0)

Asked: Identify whether the reported Emax of the following molecule is 30% or greater: COc1ccc(CCNc2ncnc3c2oc2nc(C(C)C)c4c(c23)CCC4)cc1OC
Given back: no (0)

====

# assay.system: vasopressin-2 receptor (AVP2R) (Homo sapiens, UniProt P30518)
# Construct: expressed in transfected cells; host or cells: CHO-K1 (PAM format); HEK-293 (agonist format)
# protocol.summary: AVP2R cAMP HTRF accumulation assay
# Type: cell-based
# assay.context: CHO-K1 AVP2R cells, PAM format
property.name: AVP2R PAM (cAMP) Score (activity score = normalized Emax × pEC50)
Output spec: single numeric token, no unit.

Value of measured AVP2R PAM (cAMP) Score (activity score = normalized Emax × pEC50) for the entry CCCCNc1ncnc2c1sc1nc(CCC)c3c(c12)CCCC3 [CMP-57] : 0

Value of measured AVP2R PAM (cAMP) Score (activity score = normalized Emax × pEC50) for the entry OCCNc1ncnc2c1sc1nc(N3CCOCC3)c3c(c12)CCCC3 [CMP-49] : 0

Value of measured AVP2R PAM (cAMP) Score (activity score = normalized Emax × pEC50) for the entry Cc1nc2sc3c(NCCN4CCOCC4)ncnc3c2c2c1CCCC2 [CMP-61] : 0

Value of measured AVP2R PAM (cAMP) Score (activity score = normalized Emax × pEC50) for the entry CCCc1nc2oc3c(NCCCN(C)C)ncnc3c2c2c1CCCC2 [CMP-28] : 3.53

Value of measured AVP2R PAM (cAMP) Score (activity score = normalized Emax × pEC50) for the entry CN(C)CCCNc1nnnc2c1sc1nc(N3CCOCC3)c3c(c12)CCCC3 [CMP-17] : 1.2

Value of measured AVP2R PAM (cAMP) Score (activity score = normalized Emax × pEC50) for the entry CCCCNc1ncnc2c1sc1nc(N3CCOCC3)c3c(c12)CCCC3 [CMP-48] : 0

Value of measured AVP2R PAM (cAMP) Score (activity score = normalized Emax × pEC50) for the entry CCCc1nc2oc3c(NCCCO)ncnc3c2c2c1CCCC2 [CMP-58] : 0

Value of measured AVP2R PAM (cAMP) Score (activity score = normalized Emax × pEC50) for the entry O=C(CSc1ncnc2c1sc1nc(N3CCOCC3)c3c(c12)CCCC3)Nc1ccc(Br)cc1 [CMP-41] : 0

Value of measured AVP2R PAM (cAMP) Score (activity score = normalized Emax × pEC50) for the entry CC(C)Cc1nc2sc3c(NCCN4CCOCC4)ncnc3c2c2c1CCCC2 [CMP-34] : 2.13

Value of measured AVP2R PAM (cAMP) Score (activity score = normalized Emax × pEC50) for the entry CCN(CC)CCNc1ncnc2c1oc1nc(CC(C)C)c3c(c12)CCC3 [CMP-33] : 1.60

Value of measured AVP2R PAM (cAMP) Score (activity score = normalized Emax × pEC50) for the entry CCOC(=O)N1CCN(c2ncnc3c2oc2nc(CC(C)C)c4c(c23)CCCC4)CC1 [CMP-55] : 0

Value of measured AVP2R PAM (cAMP) Score (activity score = normalized Emax × pEC50) for the entry CCCc1nc2oc3c(N4CCN(CCO)CC4)ncnc3c2c2c1CCCC2 [CMP-30] : 1.52

Value of measured AVP2R PAM (cAMP) Score (activity score = normalized Emax × pEC50) for the entry CCCc1nc2sc3c(SC)ncnc3c2c2c1CCCC2 [CMP-38] : 0

Value of measured AVP2R PAM (cAMP) Score (activity score = normalized Emax × pEC50) for the entry CC(C)c1nc2oc3c(N4CCC(Cc5ccccc5)CC4)ncnc3c2c2c1CCC2 [CMP-63] : 0

Value of measured AVP2R PAM (cAMP) Score (activity score = normalized Emax × pEC50) for the entry COCCNc1ncnc2c1sc1nc(N3CCOCC3)c3c(c12)CCCC3 [CMP-47] : 0

Value of measured AVP2R PAM (cAMP) Score (activity score = normalized Emax × pEC50) for the entry C=CCNc1ncnc2c1sc1nc(N3CCOCC3)c3c(c12)CCCC3 [CMP-50] : 0

Value of measured AVP2R PAM (cAMP) Score (activity score = normalized Emax × pEC50) for the entry CCCc1nc2oc3c(NCc4ccncc4)ncnc3c2c2c1CCCC2 [CMP-60] : 0

Value of measured AVP2R PAM (cAMP) Score (activity score = normalized Emax × pEC50) for the entry C/C(Br)=C\CSc1ncnc2c1sc1nc(N3CCOCC3)c3c(c12)CCCC3 [CMP-44] : 0

Value of measured AVP2R PAM (cAMP) Score (activity score = normalized Emax × pEC50) for the entry CN1CCN(c2ncnc3c2sc2nc(N4CCCCC4)c4c(c23)CCCC4)CC1 [CMP-31] : 1.26

Value of measured AVP2R PAM (cAMP) Score (activity score = normalized Emax × pEC50) for the entry CN(C)CCNc1ncnc2c1sc1nc(N3CCOCC3)c3c(c12)CCCC3 [CMP-4] : 1.2
